biological target: UniProtKB Q92831; experiment: Inhibition of PCAF (unknown origin) using histone H3/[acetyl-3H]-acetyl coenzyme A as substrate
Sequence (Q92831 whole entry): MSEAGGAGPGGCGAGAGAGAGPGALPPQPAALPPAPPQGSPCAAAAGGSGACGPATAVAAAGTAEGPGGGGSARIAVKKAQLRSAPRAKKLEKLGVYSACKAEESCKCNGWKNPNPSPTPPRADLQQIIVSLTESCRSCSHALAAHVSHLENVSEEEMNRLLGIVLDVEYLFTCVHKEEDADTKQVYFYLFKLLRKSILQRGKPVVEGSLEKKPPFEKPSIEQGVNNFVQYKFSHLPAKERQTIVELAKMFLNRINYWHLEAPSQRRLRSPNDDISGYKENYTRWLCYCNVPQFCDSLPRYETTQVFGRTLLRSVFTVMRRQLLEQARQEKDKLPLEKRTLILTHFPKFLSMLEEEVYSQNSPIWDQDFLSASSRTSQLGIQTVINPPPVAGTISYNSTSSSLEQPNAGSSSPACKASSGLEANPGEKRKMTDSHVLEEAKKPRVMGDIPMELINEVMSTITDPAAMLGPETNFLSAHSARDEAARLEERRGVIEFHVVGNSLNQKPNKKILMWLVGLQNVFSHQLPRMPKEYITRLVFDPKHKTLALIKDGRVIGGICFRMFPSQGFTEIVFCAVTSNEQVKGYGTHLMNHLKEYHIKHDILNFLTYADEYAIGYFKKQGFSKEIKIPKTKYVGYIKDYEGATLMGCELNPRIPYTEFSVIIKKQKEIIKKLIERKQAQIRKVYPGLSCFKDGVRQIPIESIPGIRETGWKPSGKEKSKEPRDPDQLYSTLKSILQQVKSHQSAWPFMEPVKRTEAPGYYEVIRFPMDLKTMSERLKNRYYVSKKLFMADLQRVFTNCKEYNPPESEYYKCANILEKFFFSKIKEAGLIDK
Recorded Endpoint: IC50 (µM)

>  <Molecule>
CCCCCCCCCCCCCCCc1cccc(O)c1C(=O)O [ANACARDIC ACID]

>  <System Tested>
UniProtKB Q92831

>  <Recorded Endpoint>
IC50

>  <Data Value>
33.9

$$$$

###

target: Histone acetyltransferase p300 (Homo sapiens); assay: Inhibition of recombinant P300 (unknown origin)
Recorded Endpoint: IC50 (µM)

>  <Smiles Text>
Cc1cc(O)cc(C)c1C=C1C(=O)N(Cc2ccccc2)C(=O)N(Cc2ccccc2)C1=O

>  <Unit Of Measurement>
µM

>  <Data Value>
2.9

$$$$

###

target: Histone acetyltransferase p300 (Homo sapiens, UniProt Q09472); assay: Noncompetitive inhibition of P300 (unknown origin) using biotinylated H3 as substrate after 15 mins by double reciprocal plot analysis
Sequence (Q09472 whole entry): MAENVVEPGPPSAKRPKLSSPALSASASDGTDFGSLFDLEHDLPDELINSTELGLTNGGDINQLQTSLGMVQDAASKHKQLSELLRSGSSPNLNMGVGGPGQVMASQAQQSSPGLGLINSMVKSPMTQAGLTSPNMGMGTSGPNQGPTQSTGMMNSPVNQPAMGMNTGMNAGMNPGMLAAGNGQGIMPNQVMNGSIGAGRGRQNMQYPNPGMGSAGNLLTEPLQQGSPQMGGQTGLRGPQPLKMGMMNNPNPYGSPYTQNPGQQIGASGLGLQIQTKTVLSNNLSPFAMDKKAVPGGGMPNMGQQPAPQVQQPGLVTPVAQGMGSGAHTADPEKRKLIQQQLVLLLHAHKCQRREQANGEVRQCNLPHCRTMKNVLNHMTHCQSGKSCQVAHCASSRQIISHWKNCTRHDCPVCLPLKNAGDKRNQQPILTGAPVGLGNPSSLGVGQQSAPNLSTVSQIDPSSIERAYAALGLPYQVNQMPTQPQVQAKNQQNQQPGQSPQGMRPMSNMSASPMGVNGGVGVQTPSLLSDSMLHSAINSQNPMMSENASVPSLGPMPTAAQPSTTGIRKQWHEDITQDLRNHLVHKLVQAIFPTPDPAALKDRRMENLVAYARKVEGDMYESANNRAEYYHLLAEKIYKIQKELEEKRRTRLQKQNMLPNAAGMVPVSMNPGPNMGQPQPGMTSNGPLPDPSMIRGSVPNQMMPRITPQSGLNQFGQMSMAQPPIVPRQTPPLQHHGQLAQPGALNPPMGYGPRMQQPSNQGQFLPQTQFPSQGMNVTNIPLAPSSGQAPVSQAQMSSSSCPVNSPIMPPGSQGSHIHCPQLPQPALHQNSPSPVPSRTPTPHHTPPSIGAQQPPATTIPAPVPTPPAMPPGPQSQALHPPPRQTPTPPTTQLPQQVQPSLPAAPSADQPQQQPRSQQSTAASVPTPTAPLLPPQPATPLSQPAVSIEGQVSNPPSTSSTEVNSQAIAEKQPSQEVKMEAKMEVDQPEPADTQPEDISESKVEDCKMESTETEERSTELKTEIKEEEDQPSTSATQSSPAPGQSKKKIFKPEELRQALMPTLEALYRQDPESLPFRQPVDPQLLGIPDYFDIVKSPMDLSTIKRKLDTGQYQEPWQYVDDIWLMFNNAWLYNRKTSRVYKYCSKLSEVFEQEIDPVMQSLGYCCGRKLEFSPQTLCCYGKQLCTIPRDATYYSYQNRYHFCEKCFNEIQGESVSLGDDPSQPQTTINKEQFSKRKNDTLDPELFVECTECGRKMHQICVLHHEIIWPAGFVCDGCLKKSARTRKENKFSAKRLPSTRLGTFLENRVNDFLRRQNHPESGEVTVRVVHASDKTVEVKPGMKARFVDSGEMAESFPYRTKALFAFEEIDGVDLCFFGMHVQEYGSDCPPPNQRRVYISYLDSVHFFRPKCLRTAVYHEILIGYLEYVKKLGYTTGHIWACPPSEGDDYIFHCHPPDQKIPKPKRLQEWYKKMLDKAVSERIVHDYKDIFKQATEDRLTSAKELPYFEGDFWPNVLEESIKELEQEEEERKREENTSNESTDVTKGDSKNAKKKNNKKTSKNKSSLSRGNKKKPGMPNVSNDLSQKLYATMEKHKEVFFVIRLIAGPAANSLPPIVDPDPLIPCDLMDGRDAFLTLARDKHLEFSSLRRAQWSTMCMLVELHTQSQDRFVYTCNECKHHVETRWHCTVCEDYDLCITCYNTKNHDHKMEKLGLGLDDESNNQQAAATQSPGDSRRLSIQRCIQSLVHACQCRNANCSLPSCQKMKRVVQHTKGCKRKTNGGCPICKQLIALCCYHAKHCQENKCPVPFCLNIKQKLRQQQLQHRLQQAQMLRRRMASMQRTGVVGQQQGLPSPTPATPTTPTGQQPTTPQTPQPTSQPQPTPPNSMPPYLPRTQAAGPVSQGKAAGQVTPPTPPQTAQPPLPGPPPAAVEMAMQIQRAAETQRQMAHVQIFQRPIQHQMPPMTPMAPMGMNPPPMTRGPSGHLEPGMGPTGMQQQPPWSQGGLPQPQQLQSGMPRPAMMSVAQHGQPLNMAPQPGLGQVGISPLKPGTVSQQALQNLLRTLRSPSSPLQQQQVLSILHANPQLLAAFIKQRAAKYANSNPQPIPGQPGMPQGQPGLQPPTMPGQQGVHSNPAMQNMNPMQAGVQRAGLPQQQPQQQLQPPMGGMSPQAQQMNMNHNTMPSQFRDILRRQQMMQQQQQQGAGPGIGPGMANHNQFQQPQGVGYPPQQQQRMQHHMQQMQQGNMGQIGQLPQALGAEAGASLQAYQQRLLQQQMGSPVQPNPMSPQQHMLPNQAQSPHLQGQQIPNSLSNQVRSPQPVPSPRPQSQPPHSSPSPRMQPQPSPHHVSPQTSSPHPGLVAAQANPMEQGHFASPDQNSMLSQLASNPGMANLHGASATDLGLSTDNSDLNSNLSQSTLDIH
pKi: −log10 of the molar value.
Recorded Endpoint: pKi

>  <Smiles Text>
Cc1cc(O)cc(C)c1C=C1C(=O)N(Cc2ccccc2)C(=O)N(Cc2ccccc2)C1=O

>  <Recorded Endpoint>
pKi

>  <Data Value>
5.03

$$$$

###

molecular target: Histone acetyltransferase p300 (Homo sapiens, UniProt Q09472); assay: Inhibition of P300 (unknown origin) using histone H3/[acetyl-3H]-acetyl coenzyme A as substrate
Cut-off 2 µM on IC50: below means fulfilled, at or above means not fulfilled.

>  <Smiles Text>
C=CCN1C(=O)C(=Cc2ccc(O)c(OC)c2)C(=O)N(CC=C)C1=O

>  <System Tested>
Histone acetyltransferase p300 (Homo sapiens, UniProt Q09472)

>  <Label>
not fulfilled

$$$$
>  <Smiles Text>
COc1cc(C=C2C(=O)N(Cc3ccccc3)C(=O)N(Cc3ccccc3)C2=O)ccc1O

>  <System Tested>
Histone acetyltransferase p300 (Homo sapiens, UniProt Q09472)

>  <Label>
fulfilled

$$$$
>  <Smiles Text>
COc1ccc(C=C2C(=O)N(CC(C)C)C(=O)N(CC(C)C)C2=O)cc1O

>  <System Tested>
Histone acetyltransferase p300 (Homo sapiens, UniProt Q09472)

>  <Label>
not fulfilled

$$$$
>  <Smiles Text>
O=C1C(=Cc2ccc(O)cc2)C(=O)N(Cc2ccccc2)C(=O)N1Cc1ccccc1

>  <System Tested>
Histone acetyltransferase p300 (Homo sapiens, UniProt Q09472)

>  <Label>
not fulfilled

$$$$
>  <Smiles Text>
COc1ccc(C=C2C(=O)N(Cc3ccccc3)C(=O)N(Cc3ccccc3)C2=O)cc1OC

>  <System Tested>
Histone acetyltransferase p300 (Homo sapiens, UniProt Q09472)

>  <Label>
not fulfilled

$$$$
>  <Smiles Text>
CC1=NN(c2ccc(C(=O)O)cc2)C(=O)/C1=C\Cc1ccc(Cc2cc(C)c(C)cc2[N+](=O)[O-])o1

>  <System Tested>
Histone acetyltransferase p300 (Homo sapiens, UniProt Q09472)

>  <Label>
fulfilled

$$$$
>  <Smiles Text>
COc1ccc(C=C2C(=O)N(Cc3ccccc3)C(=O)N(Cc3ccccc3)C2=O)cc1O

>  <System Tested>
Histone acetyltransferase p300 (Homo sapiens, UniProt Q09472)

>  <Label>
not fulfilled

$$$$

###

biological target: Histone acetyltransferase p300 (Homo sapiens); assay: Inhibition of P300 (unknown origin) using histone H3/[acetyl-3H]-acetyl coenzyme A as substrate at 100 uM
Recorded Endpoint: inhibition (%)

>  <Smiles Text>
O=C1C(Cc2ccc(O)cc2)C(=O)N(Cc2ccccc2)C(=O)N1Cc1ccccc1

>  <Data Value>
60.3

$$$$
>  <Smiles Text>
O=C(c1ccc(O)cc1)C1C(=O)N(Cc2ccccc2)C(=O)N(Cc2ccccc2)C1=O

>  <Data Value>
54.4

$$$$
>  <Smiles Text>
O=C1C(=Cc2ccc(O)cc2)C(=O)N(Cc2ccccc2)C(=O)N1Cc1ccccc1

>  <Data Value>
99.2

$$$$
>  <Smiles Text>
COc1ccc(C=C2C(=O)N(Cc3ccccc3)C(=O)N(Cc3ccccc3)C2=O)cc1OC

>  <Data Value>
88.2

$$$$
>  <Smiles Text>
C=CCN1C(=O)C(C(=O)c2ccccc2)C(=O)N(CC=C)C1=O

>  <Data Value>
28.1

$$$$
>  <Smiles Text>
C=CCN1C(=O)C(=Cc2ccc(OC)cc2)C(=O)N(CC=C)C1=O

>  <Data Value>
59.9

$$$$
>  <Smiles Text>
CC(C)CN1C(=O)C(=Cc2ccc(O)cc2)C(=O)N(CC(C)C)C1=O

>  <Data Value>
94

$$$$
>  <Smiles Text>
CC(C)CN1C(=O)C(C(=O)c2ccc(O)c(O)c2)C(=O)N(CC(C)C)C1=O

>  <Data Value>
8.4

$$$$
>  <Smiles Text>
COc1cc(C=C2C(=O)N(CC(C)C)C(=O)N(CC(C)C)C2=O)ccc1O

>  <Data Value>
96.4

$$$$
>  <Smiles Text>
C=CCN1C(=O)C(=Cc2ccc(O)c(OC)c2)C(=O)N(CC=C)C1=O

>  <Data Value>
67.3

$$$$
>  <Smiles Text>
CC(C)CN1C(=O)C(Cc2ccc(O)c(O)c2)C(=O)N(CC(C)C)C1=O

>  <Data Value>
24.3

$$$$
>  <Smiles Text>
O=C1C(Cc2ccc(O)c(O)c2)C(=O)N(Cc2ccccc2)C(=O)N1Cc1ccccc1

>  <Data Value>
59.9

$$$$
>  <Smiles Text>
O=C(c1ccccc1)C1C(=O)N(Cc2ccccc2)C(=O)N(Cc2ccccc2)C1=O

>  <Data Value>
84.8

$$$$
>  <Smiles Text>
CC(C)CN1C(=O)C(Cc2ccccc2)C(=O)N(CC(C)C)C1=O

>  <Data Value>
23.1

$$$$
>  <Smiles Text>
CC(C)CN1C(=O)C(=Cc2ccc(O)c(O)c2)C(=O)N(CC(C)C)C1=O

>  <Data Value>
91.8

$$$$
>  <Smiles Text>
O=C(c1ccc(O)c(O)c1)C1C(=O)N(Cc2ccccc2)C(=O)N(Cc2ccccc2)C1=O

>  <Data Value>
48.2

$$$$
>  <Smiles Text>
COc1ccc(C=C2C(=O)N(CC(C)C)C(=O)N(CC(C)C)C2=O)cc1OC

>  <Data Value>
45.8

$$$$
>  <Smiles Text>
COc1ccc(C=C2C(=O)N(CC(C)C)C(=O)N(CC(C)C)C2=O)cc1

>  <Data Value>
53.8

$$$$
>  <Smiles Text>
CC(C)CN1C(=O)C(C(=O)c2ccccc2)C(=O)N(CC(C)C)C1=O

>  <Data Value>
34.1

$$$$
>  <Smiles Text>
COc1ccc(C=C2C(=O)N(Cc3ccccc3)C(=O)N(Cc3ccccc3)C2=O)cc1O

>  <Data Value>
97.3

$$$$
>  <Smiles Text>
C=CCN1C(=O)C(Cc2ccc(O)cc2)C(=O)N(CC=C)C1=O

>  <Data Value>
23.7

$$$$
